ASSAYED SYSTEM: (α4)2(β2)3 nAChRs (Homo sapiens (Human), UniProt P17787+P43681)
Sequence (P43681 29-627): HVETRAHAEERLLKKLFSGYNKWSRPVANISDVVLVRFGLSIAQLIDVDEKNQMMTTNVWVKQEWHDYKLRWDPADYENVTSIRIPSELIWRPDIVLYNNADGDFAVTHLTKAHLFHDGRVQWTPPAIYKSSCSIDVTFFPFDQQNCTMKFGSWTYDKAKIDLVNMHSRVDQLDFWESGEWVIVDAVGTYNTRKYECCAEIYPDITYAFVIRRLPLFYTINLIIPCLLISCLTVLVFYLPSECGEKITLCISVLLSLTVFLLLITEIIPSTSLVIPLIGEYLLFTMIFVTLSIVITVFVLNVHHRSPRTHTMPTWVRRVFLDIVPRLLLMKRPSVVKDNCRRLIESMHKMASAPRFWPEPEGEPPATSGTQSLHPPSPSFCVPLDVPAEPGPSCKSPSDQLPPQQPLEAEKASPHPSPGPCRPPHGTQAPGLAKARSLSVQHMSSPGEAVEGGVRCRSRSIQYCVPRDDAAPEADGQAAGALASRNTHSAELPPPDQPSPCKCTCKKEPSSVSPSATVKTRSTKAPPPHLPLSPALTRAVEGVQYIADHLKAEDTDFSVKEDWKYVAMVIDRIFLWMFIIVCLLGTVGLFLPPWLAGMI
Sequence (P17787 26-502): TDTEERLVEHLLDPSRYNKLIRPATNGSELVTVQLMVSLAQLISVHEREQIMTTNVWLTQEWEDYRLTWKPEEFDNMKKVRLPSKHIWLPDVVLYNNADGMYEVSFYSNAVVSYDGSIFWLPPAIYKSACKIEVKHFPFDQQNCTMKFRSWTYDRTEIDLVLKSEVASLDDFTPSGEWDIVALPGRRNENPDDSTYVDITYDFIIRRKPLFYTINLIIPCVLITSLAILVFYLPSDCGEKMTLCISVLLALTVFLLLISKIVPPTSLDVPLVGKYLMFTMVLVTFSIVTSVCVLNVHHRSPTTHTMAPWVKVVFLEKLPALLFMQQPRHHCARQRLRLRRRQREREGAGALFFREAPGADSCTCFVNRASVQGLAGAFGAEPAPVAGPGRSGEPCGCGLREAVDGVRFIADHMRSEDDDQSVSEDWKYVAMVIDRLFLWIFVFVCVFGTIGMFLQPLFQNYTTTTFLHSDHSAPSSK
METHOD NOTES: Maximal gating efficacy on (α4)2(β2)3 nAChRs in Xenopus oocytes, two electrode voltage clamp
Format: cell-based
PARTICULARS: (α4)2(β2)3, high sensitivity receptors; maximal current relative to 1 mM ACh
MEASUREMENT LABEL: Relative efficacy (ACh)
Would you mind answering with just the numeric figure?

Requested read-out: Relative efficacy (ACh). Entry: CNc1cc2n(c(=O)c1Br)CC1CNC[C@@H]2C1 (single isomer, unassigned; (+)) [Compound 158, (+)3-Bromo-4-N-methylaminocytisine]
0.038

How about this compound: O=c1cc(Cl)cc2n1CC1CNC[C@@H]2C1 (single isomer, unassigned; (-)) [Compound 60, (−)4-Chlorocytisine]
0.01

How about Cl.O=c1cc(CO)cc2n1CC1CNC[C@@H]2C1 (single isomer, unassigned; (-)) [Compound 122, (−)4-(Hydroxymethyl)cytisine] ?
0.025

Let us now turn to CC(=O)Nc1cc2n(c(=O)c1)CC1CNC[C@@H]2C1.Cl (single isomer, unassigned; (+)) [Compound 94, (+)4-(N-acetylamino)cytisine]
0.001

Likewise for Nc1cc2n(c(=O)c1)CC1CNC[C@@H]2C1 (single isomer, unassigned; (+)) [Compound 81, (+)4-aminocytisine] ?
0.024

// next record CCc1cc2n(c(=O)c1Br)CC1CNCC2C1 (single isomer, unassigned; (-)) [BS74, (−)-(3-bromo-4-ethyl)cytisine]
0.121

And the next one, O=c1cc(Br)cc2n1CC1CNC[C@@H]2C1 (single isomer, unassigned; (-)) [Compound 62, (−)4-Bromocytisine] ?
0.009

How about this compound: c1cnc2cc3c(cc2n1)[C@@H]1CNC[C@H]3C1 [Varenicline, reference compound]
0.14

CC(=O)NCc1cc2n(c(=O)c1)CC1CNC[C@@H]2C1.Cl (single isomer, unassigned; (-)) ?
0.015

Next record, please: CCc1cc2n(c(=O)c1)CC1CNC[C@@H]2C1.Cl (single isomer, unassigned; (-)) [Compound 118, (−)4-Ethylcytisine]
0.062

Also check Cc1cc2n(c(=O)c1)CC1CNC[C@@H]2C1.Cl (single isomer, unassigned; (-)) [Compound 110, (−)4-Methylcytisine]
0.041

Then CC(=O)OCC[N+](C)(C)C [ACh, reference compound] ?
1.0
